I'd be grateful if you could share measured pIC50 for these entries.
Molecular target: EP4 (Homo sapiens (Human), UniProt P35408)
Sequence (P35408 whole entry): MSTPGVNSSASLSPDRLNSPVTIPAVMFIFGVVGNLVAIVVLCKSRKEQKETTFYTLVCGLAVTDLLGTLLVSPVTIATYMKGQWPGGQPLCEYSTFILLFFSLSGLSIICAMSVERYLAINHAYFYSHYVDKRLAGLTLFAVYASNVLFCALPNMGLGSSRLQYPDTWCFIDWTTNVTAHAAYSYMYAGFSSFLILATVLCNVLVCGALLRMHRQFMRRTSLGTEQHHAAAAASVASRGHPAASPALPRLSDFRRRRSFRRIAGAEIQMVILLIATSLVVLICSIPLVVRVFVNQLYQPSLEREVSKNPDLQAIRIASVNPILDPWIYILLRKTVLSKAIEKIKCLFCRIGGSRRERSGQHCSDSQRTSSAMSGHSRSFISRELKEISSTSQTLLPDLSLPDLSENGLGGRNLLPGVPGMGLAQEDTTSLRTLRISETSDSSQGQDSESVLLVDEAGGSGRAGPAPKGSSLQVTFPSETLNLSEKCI
Assay: hEP4 cAMP assay (BT549 breast cancer cells, HTRF cAMP)
Format: cell-based
Conditions: antagonistic activity, PGE2 6 nM
One number for each entry, as −log10 of the molar value.

Please review the following examples before continuing.
Exam item: Please give measured pIC50 of the following entry: COc1c(CCNc2cc(-c3cc(F)c(C(=O)O)c(OC4CCC4)c3)ncn2)c(F)c(F)c2cc(C)oc12
Marked response: 6.37

Exam item: Fill in pIC50 for record CCOc1cc(-c2cc(NCCc3cc4occc4cc3OC)ncn2)ccc1OCC(=O)O
Marked response: 6.80

Exam item: For the compound CCOc1cc(-c2cc(NCCc3c(OC)cc4occc4c3C)ncn2)ccc1C(=O)O , give its reported pIC50.
Marked response: 6.55

---
Exam item: Return pIC50 for the following compound: CCOc1nc(-c2cc(NCCc3ccc4ccccc4c3C)ncn2)sc1-c1noc(=O)[nH]1
Marked response: 7.62

###

Target: PTGER2 (EP2) (Homo sapiens (Human))
Sequence (P43116 whole entry): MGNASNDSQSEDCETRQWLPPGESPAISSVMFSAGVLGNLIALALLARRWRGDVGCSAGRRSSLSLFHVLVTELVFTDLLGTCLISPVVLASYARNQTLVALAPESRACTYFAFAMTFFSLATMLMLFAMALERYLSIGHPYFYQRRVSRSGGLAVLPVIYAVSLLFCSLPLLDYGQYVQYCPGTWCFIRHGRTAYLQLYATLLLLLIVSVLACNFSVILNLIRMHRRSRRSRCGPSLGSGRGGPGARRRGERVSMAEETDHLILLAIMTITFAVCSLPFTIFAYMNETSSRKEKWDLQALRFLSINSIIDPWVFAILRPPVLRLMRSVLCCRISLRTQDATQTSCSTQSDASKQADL
Assay: hEP2 b-arrestin assay (PathHunter HEK 293 PTGER2 b-arrestin cells)
Settings: antagonistic activity, beta-arrestin assay; read-out: hEP2 b-arr IC50
# if measured IC50 < 0.07 µM: class 1  # else: class 0

Exam item: Just wondering, is IC50 of CCOc1cc(-c2cc(NCCc3ccc4[nH]ccc4c3)ncn2)sc1-c1noc(=O)[nH]1 below 0.07 µM?
Marked response: class 1

Exam item: Quick check: IC50 of CCc1cc(-c2cc(NCCc3cc(F)c4sccc4c3)ncn2)cc(C)c1CC(=O)O under 0.07 µM?
Marked response: class 0

Exam item: Dear colleague, could you confirm whether IC50 of Cc1cc(-c2cc(NCCc3cc(F)c4sccc4c3)ncn2)ccc1CC(=O)O falls below 0.07 µM? Thanks.
Marked response: class 0

Exam item: Say whether its IC50 is strictly beneath 0.07 µM. Entry: CCOc1cc2c(cc1CCNc1cc(-c3ccc(CC(=O)O)c(OC(F)(F)F)c3)ncn1)OCCO2
Marked response: class 1

Exam item: Dear colleague, could you confirm whether IC50 of CCCc1cc(-c2cc(NCCc3cc4ccsc4c(F)c3OC)ncn2)ccc1CC(=O)O falls below 0.07 µM? Thanks.
Marked response: class 0

Exam item: Just wondering, is IC50 of CCOc1cc(-c2cc(NCCc3ccc4sccc4c3C)ncn2)cc(F)c1CC(=O)O below 0.07 µM?
Marked response: class 0

Exam item: Lab note: confirm whether the reported IC50 for this compound is below 0.07 µM, equality not counting. compound: CCc1cc(-c2cc(NCCc3c(OC)cc4ccccc4c3C)ncn2)ccc1C(=O)O
Marked response: class 1

Exam item: Here's an entry: COc1cc(-c2cc(NCCc3cc(F)c4sccc4c3)ncn2)ccc1CC(=O)O . Is its IC50 below 0.07 µM?
Marked response: class 0

###

For each of the compounds below, state its log10(IC50).
Biological target: PTGER4 (EP4) (Homo sapiens (Human))
Sequence (P35408 whole entry): as the sequence (P35408 whole entry) above
Experiment: cell-based
Values are log10 of IC50 in µM.

Look over these answered cases.
Exam item: Fill in log10(IC50) for CCOc1cc(-c2cc(NCCc3ccc4cc[nH]c4c3)ncn2)sc1-c1noc(=O)[nH]1 tested with PTGER4 (EP4) (Homo sapiens (Human)).
Marked response: -2.70

Exam item: Fetch value of log10(IC50) on PTGER4 (EP4) (Homo sapiens (Human)) for CCCc1cc(-c2cc(NCCc3cc(F)c4sccc4c3)ncn2)ccc1CC(=O)O .
Marked response: -1.54

Exam item: Lab note: record log10(IC50) of CC(C)COc1cc(-c2cc(NCCc3cc(F)c4sccc4c3)ncn2)ccc1C(=O)O tested on PTGER4 (EP4) (Homo sapiens (Human)).
Marked response: -1.15

Record log10(IC50) per entry; entries follow.
1. CCOc1cc(-c2cc(NCCc3cc(F)c4sccc4c3)ncn2)ccc1-c1nnn[nH]1
2. CCOc1cc2ccccc2c(C)c1CCNc1cc(-c2ccc(C(=O)O)c(SC)c2)ncn1
3. COc1cc(-c2cc(NCCc3ccc4sccc4c3F)ncn2)ccc1OCCC(=O)O
4. COc1cc2c(cc1CCNc1cc(-c3ccc4c(C(=O)O)coc4c3)ncn1)OCCO2
5. CCOc1cc(-c2cc(NCCc3ccc4scc(C)c4c3)ncn2)ccc1C(=O)O
6. O=C(O)c1ccc(-c2cc(NCCc3cc(F)c4sccc4c3)ncn2)cc1OC1CC1

Marked response:
1: -1.68; 2: -1.52; 3: -1.39; 4: 0.33; 5: -0.08; 6: -1.34

Hi, could you look up log10(IC50) for each item in my list?
1. COc1cc2c(c(C)c1CCNc1cc(-c3ccc(CC(=O)O)c(OC(C)C)c3)ncn1)OCCO2
2. CCOc1cc(-c2cc(NCCc3ccc4ccn(C)c4c3)ncn2)ccc1OCC(=O)O
3. CCOc1cc(-c2cc(NCCc3c(OC)cc4c(c3F)OCCO4)ncn2)ccc1C(=O)O
4. CCOc1cc(-c2cc(NCCc3cc4ccsc4c(F)c3OC)ncn2)ccc1CC(=O)O
5. O=C(O)c1coc2cc(-c3cc(NCCc4ccc5sccc5c4)ncn3)ccc12

Marked response:
1: -1.34; 2: -0.63; 3: -0.96; 4: -1.21; 5: -0.73

Okay, here is my list. What is log10(IC50) for each of these?
1. CCOc1cc(-c2cc(NCCc3ccc4ccccc4c3)ncn2)sc1-c1noc(=O)[nH]1
2. CCOc1cc(-c2cc(NCCc3ccc4ccccc4c3C)ncn2)ccc1Cc1noc(=S)[nH]1
3. CSc1cc(-c2cc(NCCc3ccc4ccccc4c3)ncn2)ccc1C(=O)O

Marked response:
-2.22
-0.58
-0.69

###

Molecular target: PTGER2 (EP2) (Homo sapiens (Human))
Experiment: hEP2 b-arrestin assay (PathHunter HEK 293 PTGER2 b-arrestin cells)
Conditions: antagonistic activity, beta-arrestin assay; read-out: hEP2 b-arr IC50
REPORTED PROPERTY: IC50 (nM)
Numbers only, in nM.

Recorded IC50, per entry:
Exam item: System PTGER2 (EP2) (Homo sapiens (Human)). Read-out IC50. Item CCOc1cc(-c2cc(NCCc3cc4ccccc4cc3OC(F)F)ncn2)sc1C(=O)O . Report value.
Marked response: 127

Exam item: Provide IC50, recorded with PTGER2 (EP2) (Homo sapiens (Human)), of CSc1cc(-c2cc(NCCc3ccc4ccsc4c3C)ncn2)ccc1C(=O)O
Marked response: 137

Exam item: Find IC50 for CCOc1cc2ccccc2cc1CCNc1cc(-c2cc(OCC)c(C(=O)O)s2)ncn1 on PTGER2 (EP2) (Homo sapiens (Human)) and write it down.
Marked response: 15

Exam item: Given CCOc1cc(-c2cc(NCCc3cc4ccsc4cc3C)ncn2)ccc1C(=O)O , report its IC50 on PTGER2 (EP2) (Homo sapiens (Human)).
Marked response: 45

Fill in IC50 for each of the 8 compounds listed.
1. CCOc1cc(-c2cc(NCCc3ccc4cccc(F)c4c3)ncn2)ccc1CC(=O)O
2. CCOc1cc2c(cc1CCNc1cc(-c3ccc(C(=O)O)c(OC4CC4)c3)ncn1)OCCO2
3. O=C(O)c1ccc(-c2cc(NCCc3c(F)cc4ncccc4c3F)ncn2)cc1OC1CCC1
4. COc1cc2ccccc2c(F)c1CCNc1cc(-c2ccc(CC(=O)O)c(SC)c2)ncn1
5. COc1cc2c(cc1CCNc1cc(-c3ccc(C(=O)O)c(OC(C)C)c3)ncn1)OCCO2
6. CCCc1cc(-c2cc(NCCc3cc4c(cc3F)OCCO4)ncn2)ccc1CC(=O)O
7. CCOc1cc(-c2cc(NCCc3c(OCC)cc4ccccc4c3C)ncn2)ccc1CC(=O)O
8. CCOc1cc(-c2cc(NCCc3cc4c(cc3OC(F)F)OCO4)ncn2)ccc1OCC(=O)O

Marked response:
1. 3460
2. 2
3. 392
4. 243
5. 642
6. 513
7. 27
8. 238

###

Target: PTGER4 (EP4) (Homo sapiens (Human))
Experiment: cell-based
REPORTED PROPERTY: IC50 (nM)
Numbers only, in nM.

Example cases with answers are listed next.
Exam item: Give recorded IC50. CCOc1cc(-c2cc(NCCc3cc4c(cc3OC(F)F)OCCO4)ncn2)sc1C(=O)O [Example 433]
Marked response: 19

Exam item: Specify measured IC50 for CCCc1cc(-c2cc(NCCc3cc(F)c4sccc4c3)ncn2)ccc1C(=O)O [Example 389] .
Marked response: 25

Exam item: Complete the entry with IC50 for COc1cc2c(cc1CCNc1cc(-c3ccc(CC(=O)O)c(OC)c3)ncn1)OCCO2 [Example 383]
Marked response: 194

Below is a list of compounds. For each, state its recorded IC50.
1. CCOc1cc(-c2cc(NCCc3ccc4ccccc4c3C)ncn2)sc1C(=O)NS(C)(=O)=O [Example 355]
2. CCOc1cc(-c2cc(NCCc3cc4c(cc3F)OCCN4C)ncn2)sc1C(=O)O [Ex 104]
3. COc1cc2ccccc2c(C)c1CCNc1cc(-c2ccc(C(=O)O)c(OC3CC3)c2)ncn1 [Example 448]
4. COc1cc2c(cc1CCNc1cc(-c3ccc4c(C(=O)O)c[nH]c4c3)ncn1)OCCO2 [Ex 323]
5. COc1cc2c(c(C)c1CCNc1cc(-c3ccc(C(=O)O)c(OC4CCC4)c3)ncn1)OCCO2 [Example 396]
6. CCCOc1cc(-c2cc(NCCc3ccc4sccc4c3)ncn2)ccc1CC(=O)O [Example 479]

Marked response:
[29, 91, 46, 1900, 44, 158]
